Where do these numbers come from? They come from patent US8759520B2.

molecular target: Bcl-2 (Homo sapiens, UniProt P10415); assay: Homogeneous HTS assay for inhibitors of the Bcl-2 : Bak (72-87) BH3 domain interaction, fluorescence polarisation (2D-FIDA); format: binding; conditions: fluorescence polarisation, fluorescent labelled Bak BH3 domain derived peptide; read-out: IC50 [μM] Bcl-2
Sequence (P10415 whole entry, species assumed, the tested form may be a part): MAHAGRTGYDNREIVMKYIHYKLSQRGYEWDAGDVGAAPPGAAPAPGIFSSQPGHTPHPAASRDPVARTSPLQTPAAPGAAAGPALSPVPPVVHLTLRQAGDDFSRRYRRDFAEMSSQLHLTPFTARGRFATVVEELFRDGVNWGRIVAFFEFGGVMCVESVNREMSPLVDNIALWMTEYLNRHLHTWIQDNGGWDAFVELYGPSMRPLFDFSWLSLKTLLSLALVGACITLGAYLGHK
recorded.metric: IC50

A selection of reference data follows.
# structure, system, IC50
data = [
    ("N=c1n(CCCOc2ccc(F)cc2)c2ccccc2n1Cc1ccc(CN2CCN(Cc3ccc(Cl)cc3)CC2)cc1", "Bcl-2 (Homo sapiens, UniProt P10415)", "11 to 100 µM"),
    ("CC1(C)CCC(c2ccc(Cl)cc2)=C(CN2CCN(c3ccc(Cn4c(=N)n(CCCOc5ccccc5)c5ccccc54)cc3)CC2)C1", "Bcl-2 (Homo sapiens, UniProt P10415)", "< 10 µM"),
    ("N=c1n(CCCOc2ccc(F)cc2)c2ccccc2n1Cc1ccc(CN2CCN(c3ccccc3)CC2)cc1", "Bcl-2 (Homo sapiens, UniProt P10415)", "11 to 100 µM"),
    ("N=c1n(CCCOc2ccc(F)cc2)c2ccccc2n1Cc1ccc(N2CCN(Cc3cccc(Cl)c3)CC2)cc1", "Bcl-2 (Homo sapiens, UniProt P10415)", "< 10 µM"),
]

For each listed entry, give its IC50.
1. N=c1n(CCCOc2ccc(F)cc2)c2ccccc2n1Cc1ccc(CN2CCN(Cc3ccccc3Cl)CC2)cc1
2. N=c1n(CCCOc2ccc(Br)cc2)c2ccccc2n1Cc1ccccc1
3. N=c1n(CCCOc2ccc(F)cc2)c2ccccc2n1Cc1ccc(CNCC(=O)Nc2ccccc2Cl)cc1
4. N=c1n(CCCOc2ccccc2)c2ccccc2n1Cc1ccccc1F
5. N=c1n(CCCOc2ccc(F)cc2)c2ccccc2n1Cc1ccc(N2CCN(Cc3ccc(Cl)cc3)CC2)cc1

[reply]
["11 to 100 µM", "11 to 100 µM", "11 to 100 µM", "11 to 100 µM", "11 to 100 µM"]
